TARGET DESC: T1, Antigen CD66c (CEACAM6; Sino Biological, Inc.) (UniProt P40199 35-320)
T1 construct: Bought antigen coated on the ELISA plate; construct not described; also called CD66c antigen; CECACAM6
T1 sequence (looked up): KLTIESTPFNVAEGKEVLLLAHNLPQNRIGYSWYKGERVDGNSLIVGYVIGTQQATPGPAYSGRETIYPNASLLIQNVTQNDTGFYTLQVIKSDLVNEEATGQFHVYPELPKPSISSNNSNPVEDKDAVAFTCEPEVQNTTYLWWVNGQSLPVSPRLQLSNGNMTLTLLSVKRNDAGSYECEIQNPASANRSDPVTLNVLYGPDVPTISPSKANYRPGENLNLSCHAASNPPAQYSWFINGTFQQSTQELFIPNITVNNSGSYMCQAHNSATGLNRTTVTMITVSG
EXPERIMENT SUMMARY: ELISA, coated CEACAM6 100 ng/well, antibody 1111.11 ng/ml
Exercise: state measured OD 450 nm for each of the binders provided.

| BINDER | OBSERVATION TYPE | RESULT |
| --- | --- | --- |
| anti-CD66c chimeric antibody 8F5 (antibody, human IgG1, V domains shown, also called chimeric 8F5 antibody; chi 8F5) VH: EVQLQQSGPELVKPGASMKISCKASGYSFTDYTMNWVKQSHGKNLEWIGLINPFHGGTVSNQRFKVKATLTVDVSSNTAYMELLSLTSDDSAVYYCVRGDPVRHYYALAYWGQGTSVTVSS VL: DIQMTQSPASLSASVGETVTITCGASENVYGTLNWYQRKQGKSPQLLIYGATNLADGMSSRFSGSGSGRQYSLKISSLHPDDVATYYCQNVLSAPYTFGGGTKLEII | OD 450 nm | 3.3 OD |

Let's switch to this binder now.
Could you share which OD 450 nm value was measured for recombinant humanized anti-CD66c antibody Protein ID 3058 (Vk8 + VH11) (antibody, human IgG1, V domains shown, also called hu 3058; #86) VH: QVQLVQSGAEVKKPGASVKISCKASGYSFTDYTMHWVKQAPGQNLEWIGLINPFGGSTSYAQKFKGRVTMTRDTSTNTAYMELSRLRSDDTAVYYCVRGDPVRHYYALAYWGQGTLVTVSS VL: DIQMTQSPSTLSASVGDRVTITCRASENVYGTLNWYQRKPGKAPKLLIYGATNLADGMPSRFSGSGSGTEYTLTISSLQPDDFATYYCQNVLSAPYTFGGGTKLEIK ? 3.19 OD
